Here the recorded abundance fitness is given for each entry.
B1: Serine/threonine-protein kinase A-Raf, residues 21 to 89; numbered along this chain, P10398 (parent)
chain: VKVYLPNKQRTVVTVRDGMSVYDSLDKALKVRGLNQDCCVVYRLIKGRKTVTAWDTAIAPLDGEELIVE

Variants of: B1
ASSAY_NAME: abundance fitness (aPCA) (normalised: wild type 0, dead -1); higher = more abundant; growth selection in yeast, the domain comes from the species named
TEST_SETTINGS: Homo sapiens
Give the figure by itself; no unit, no explanation.

Examples from the recorded data:
INSERT INTO measurements (seq_string, assay_value) VALUES
  ('VKVYLPNKQRTVVTVRDGMSVYDSLDKALKVRGLNQDCCVVYRLIKGRKTVTADDTAIAPLDGEELIVE', -0.743),
  ('VKVYLPNKQRTVVTVRDGMSVYDSLDKALKVRGLNQDCCVVYRLIKGRKTVTLWDTAIAPLDGEELIVE', -0.455),
  ('VKVYLPNKQRTVVTVRDGQSVYDSLDKALKVRGLNQDCCVVYRLIKGRKTVTAWDTAIAPLDGEELIVE', 0.011),
  ('VKVYLPNKQRTVVTVRDGMSVYDSLDKALKVRGPNQDCCVVYRLIKGRKTVTAWDTAIAPLDGEELIVE', -0.833),
  ('VKEYLPNKQRTVVTVRDGMSVYDSLDKALKVRGLNQDCCVVYRLIKGRKTVTAWDTAIAPLDGEELIVE', -0.745),
  ('VKVYLPNKQRPVVTVRDGMSVYDSLDKALKVRGLNQDCCVVYRLIKGRKTVTAWDTAIAPLDGEELIVE', -0.979),
  ('VKVYLPNKQRLVVTVRDGMSVYDSLDKALKVRGLNQDCCVVYRLIKGRKTVTAWDTAIAPLDGEELIVE', 0.052),
  ('VPVYLPNKQRTVVTVRDGMSVYDSLDKALKVRGLNQDCCVVYRLIKGRKTVTAWDTAIAPLDGEELIVE', -0.528),
  ('VKVELPNKQRTVVTVRDGMSVYDSLDKALKVRGLNQDCCVVYRLIKGRKTVTAWDTAIAPLDGEELIVE', -0.133),
  ('VKVYLPNDQRTVVTVRDGMSVYDSLDKALKVRGLNQDCCVVYRLIKGRKTVTAWDTAIAPLDGEELIVE', -0.133);

Consider the variant shown here: VKVYLPNKQRTVVTVRDGMSVYDSLDKALKVRGLNQDCCVVYRLIKGRKTVTAWDTAIAPLMGEELIVE What is its recorded abundance fitness? -0.062

Queued: VKVYLPNKQRTVVTVRDGMSVYDSLDKALKVRGLNQDFCVVYRLIKGRKTVTAWDTAIAPLDGEELIVE -0.136

Queued: VKVYLPNKQRTVVTVRDGMSVYDSLDKALKVRGLNQDCCVVYRLIKGRKTVTAWDTAIADLDGEELIVE 0.138

Queued: VKVYLPNKQRTVVTVRDGMPVYDSLDKALKVRGLNQDCCVVYRLIKGRKTVTAWDTAIAPLDGEELIVE -0.728

Queued: VKVYLPNKQRTVVTVRDGMSVYDSLDKALKVRGLNQDCCVVYRLIKGRKTVTAWDTAIVPLDGEELIVE -0.122

Queued: VKVYLPNKQRTVVTVRDGMSVYDSLDKALKVRGLNQDCCVVYRLIKGRKTVCAWDTAIAPLDGEELIVE -0.161

Queued: VKVYLPNKQRTVVTVRDGMSVYDSLDKALKVRGLNQDCCVVYRLIKGRKTVTAWDTAIAPLDVEELIVE -0.097

Measured values drawn from the Human Domainome abundance scans (Beltran et al. 2025) for this set.
